Provenance of the data: paper PMC8761492

- TEST DETAILS: Protocol estimate of target concentrations from the HCoV-229E experiment
- COND: bovine, cell culture medium with 10% bovine serum
Starred links: 1 amine or outer side, 2 acyl side, 3 side chain; linkers in the order of their positions; H or OH if unused. Positions of bridges follow the written chain, without caps; N, C: chain ends. Non-standard residues stand in square brackets, D forms with d. Residues, ends and D or L forms follow the SMILES beside them. *: point of attachment. X1 = CC[C@H](C)[C@@H](N[*:1])[C@@H](O)CC(=O)O[C@H](C(=O)[C@H](C)C(=O)[*:2])C(C)C; NMeY = CN[C@@H](Cc1ccc(O)cc1)C(=O)O; dNMeL = CN[C@H](CC(C)C)C(=O)O; Pyruvoyl = CC(=O)C(=O)*
RECORDED ENDPOINT: fraction unbound

Which value of fraction unbound has been reported for CC[C@H](C)[C@H]1NC(=O)[C@@H](NC(=O)[C@@H](CC(C)C)N(C)C(=O)[C@@H]2CCCN2C(=O)C(C)=O)[C@@H](C)OC(=O)[C@H](Cc2ccc(OC)cc2)N(C)C(=O)[C@@H]2CCCN2C(=O)[C@H](CC(C)C)NC(=O)[C@@H](C)C(=O)[C@H](C(C)C)OC(=O)C[C@@H]1O [Plitidepsin] (Pyruvoyl-P[dNMeL]T[X1]LP[NMeY](Me); ester 3-C) in the records? > 0.96

----------
- TEST DETAILS: Plasma protein binding by equilibrium dialysis, human plasma
- Assay type: in vitro ADME
- COND: male, human, plasma, nominal 250 ng/mL, single replicates, read-out: % Unbound
Starred links: 1 amine or outer side, 2 acyl side, 3 side chain; linkers in the order of their positions; H or OH if unused. Positions of bridges follow the written chain, without caps; N, C: chain ends. Non-standard residues stand in square brackets, D forms with d. Residues, ends and D or L forms follow the SMILES beside them. *: point of attachment. X1 = CC[C@H](C)[C@@H](N[*:1])[C@@H](O)CC(=O)O[C@H](C(=O)[C@H](C)C(=O)[*:2])C(C)C; NMeY = CN[C@@H](Cc1ccc(O)cc1)C(=O)O; dNMeL = CN[C@H](CC(C)C)C(=O)O; Pyruvoyl = CC(=O)C(=O)*
RECORDED ENDPOINT: fraction unbound at 5 h, 250 ng/mL

Need fraction unbound at 5 h, 250 ng/mL, item CC[C@H](C)[C@H]1NC(=O)[C@@H](NC(=O)[C@@H](CC(C)C)N(C)C(=O)[C@@H]2CCCN2C(=O)C(C)=O)[C@@H](C)OC(=O)[C@H](Cc2ccc(OC)cc2)N(C)C(=O)[C@@H]2CCCN2C(=O)[C@H](CC(C)C)NC(=O)[C@@H](C)C(=O)[C@H](C(C)C)OC(=O)C[C@@H]1O [Plitidepsin] (Pyruvoyl-P[dNMeL]T[X1]LP[NMeY](Me); ester 3-C) 0.03

----------
- TEST DETAILS: Plasma protein binding by equilibrium dialysis, human plasma
- Assay type: in vitro ADME
- COND: male, human, independent of drug concentration
Starred links: 1 amine or outer side, 2 acyl side, 3 side chain; linkers in the order of their positions; H or OH if unused. Positions of bridges follow the written chain, without caps; N, C: chain ends. Non-standard residues stand in square brackets, D forms with d. Residues, ends and D or L forms follow the SMILES beside them. *: point of attachment. X1 = CC[C@H](C)[C@@H](N[*:1])[C@@H](O)CC(=O)O[C@H](C(=O)[C@H](C)C(=O)[*:2])C(C)C; NMeY = CN[C@@H](Cc1ccc(O)cc1)C(=O)O; dNMeL = CN[C@H](CC(C)C)C(=O)O; Pyruvoyl = CC(=O)C(=O)*
RECORDED ENDPOINT: fraction unbound
Simply state the number, no unit and no words.

Give the measured fraction unbound of CC[C@H](C)[C@H]1NC(=O)[C@@H](NC(=O)[C@@H](CC(C)C)N(C)C(=O)[C@@H]2CCCN2C(=O)C(C)=O)[C@@H](C)OC(=O)[C@H](Cc2ccc(OC)cc2)N(C)C(=O)[C@@H]2CCCN2C(=O)[C@H](CC(C)C)NC(=O)[C@@H](C)C(=O)[C@H](C(C)C)OC(=O)C[C@@H]1O [Plitidepsin] (Pyruvoyl-P[dNMeL]T[X1]LP[NMeY](Me); ester 3-C) . 0.02

----------
- TEST DETAILS: Plasma protein binding by equilibrium dialysis, human plasma
- Type: in vitro ADME
- COND: male, human, plasma, nominal 100 ng/mL, single replicates, read-out: % Unbound
Starred links: 1 amine or outer side, 2 acyl side, 3 side chain; linkers in the order of their positions; H or OH if unused. Positions of bridges follow the written chain, without caps; N, C: chain ends. Non-standard residues stand in square brackets, D forms with d. Residues, ends and D or L forms follow the SMILES beside them. *: point of attachment. X1 = CC[C@H](C)[C@@H](N[*:1])[C@@H](O)CC(=O)O[C@H](C(=O)[C@H](C)C(=O)[*:2])C(C)C; NMeY = CN[C@@H](Cc1ccc(O)cc1)C(=O)O; dNMeL = CN[C@H](CC(C)C)C(=O)O; Pyruvoyl = CC(=O)C(=O)*
RECORDED ENDPOINT: fraction unbound at 5 h, 100 ng/mL
Give only the figure.

Given the entry CC[C@H](C)[C@H]1NC(=O)[C@@H](NC(=O)[C@@H](CC(C)C)N(C)C(=O)[C@@H]2CCCN2C(=O)C(C)=O)[C@@H](C)OC(=O)[C@H](Cc2ccc(OC)cc2)N(C)C(=O)[C@@H]2CCCN2C(=O)[C@H](CC(C)C)NC(=O)[C@@H](C)C(=O)[C@H](C(C)C)OC(=O)C[C@@H]1O [Plitidepsin] (Pyruvoyl-P[dNMeL]T[X1]LP[NMeY](Me); ester 3-C) , report its measured fraction unbound at 5 h, 100 ng/mL. 0.014

----------
- TEST DETAILS: Plasma protein binding by equilibrium dialysis, human plasma
- Format: in vitro ADME
- COND: male, human, plasma, nominal 250 ng/mL, Mean ± SD, read-out: % Unbound
Starred links: 1 amine or outer side, 2 acyl side, 3 side chain; linkers in the order of their positions; H or OH if unused. Positions of bridges follow the written chain, without caps; N, C: chain ends. Non-standard residues stand in square brackets, D forms with d. Residues, ends and D or L forms follow the SMILES beside them. *: point of attachment. X1 = CC[C@H](C)[C@@H](N[*:1])[C@@H](O)CC(=O)O[C@H](C(=O)[C@H](C)C(=O)[*:2])C(C)C; NMeY = CN[C@@H](Cc1ccc(O)cc1)C(=O)O; dNMeL = CN[C@H](CC(C)C)C(=O)O; Pyruvoyl = CC(=O)C(=O)*
RECORDED ENDPOINT: fraction unbound at 5 h, 250 ng/mL

Sample CC[C@H](C)[C@H]1NC(=O)[C@@H](NC(=O)[C@@H](CC(C)C)N(C)C(=O)[C@@H]2CCCN2C(=O)C(C)=O)[C@@H](C)OC(=O)[C@H](Cc2ccc(OC)cc2)N(C)C(=O)[C@@H]2CCCN2C(=O)[C@H](CC(C)C)NC(=O)[C@@H](C)C(=O)[C@H](C(C)C)OC(=O)C[C@@H]1O [Plitidepsin] (Pyruvoyl-P[dNMeL]T[X1]LP[NMeY](Me); ester 3-C) — what was its fraction unbound at 5 h, 250 ng/mL? 0.022

----------
- TEST DETAILS: Plasma protein binding by equilibrium dialysis, human plasma
- Type: in vitro ADME
- COND: male, human, plasma, nominal 250 ng/mL, Mean ± SD, read-out: % Bound (converted)
Starred links: 1 amine or outer side, 2 acyl side, 3 side chain; linkers in the order of their positions; H or OH if unused. Positions of bridges follow the written chain, without caps; N, C: chain ends. Non-standard residues stand in square brackets, D forms with d. Residues, ends and D or L forms follow the SMILES beside them. *: point of attachment. X1 = CC[C@H](C)[C@@H](N[*:1])[C@@H](O)CC(=O)O[C@H](C(=O)[C@H](C)C(=O)[*:2])C(C)C; NMeY = CN[C@@H](Cc1ccc(O)cc1)C(=O)O; dNMeL = CN[C@H](CC(C)C)C(=O)O; Pyruvoyl = CC(=O)C(=O)*
RECORDED ENDPOINT: fraction unbound at 5 h, 250 ng/mL
Hey, just send me the number, nothing else.

# fraction unbound at 5 h, 250 ng/mL lookup, item CC[C@H](C)[C@H]1NC(=O)[C@@H](NC(=O)[C@@H](CC(C)C)N(C)C(=O)[C@@H]2CCCN2C(=O)C(C)=O)[C@@H](C)OC(=O)[C@H](Cc2ccc(OC)cc2)N(C)C(=O)[C@@H]2CCCN2C(=O)[C@H](CC(C)C)NC(=O)[C@@H](C)C(=O)[C@H](C(C)C)OC(=O)C[C@@H]1O [Plitidepsin] (Pyruvoyl-P[dNMeL]T[X1]LP[NMeY](Me); ester 3-C) 0.022
